Measured composite z-score, listed per entry.
System: Human papillomavirus type 1a E7 protein (residues 1-88)
assay explanation: HPV1a E7 small-molecule binders, primary screen, biochemical, small-molecule microarray, residues 1-88, 635 nm (AID 1129)
stated conditions: small-molecule microarray binding, fluorescence 635 nm; higher = more signal
A bare number is all that is needed in reply.

Answered cases to consult:
compound	composite z-score
CCCC[C@@H](O)C1=C(COC)Cn2c(=O)n(-c3ccccc3)c(=O)n2[C@H]1CO	-0.155
CC(C)C(=C=CC[C@@H](O)c1ccccc1OCCO)C[C@@H](O)c1cc(Cl)cc(Cl)c1O	1.23
O=C1C2C=CC(C(O)C(c3ccccc3)c3ccccc3)N(Nc3ccccc3)C2C(=O)N1c1ccccc1 (configuration not stated)	1.28
COc1ccccc1CN1C(=O)c2ccccc2[C@@H](C(=O)NCCCN(C)C)[C@@H]1c1ccc(CO)cc1	0.232
COCCOC(=O)N1C(=O)[C@@]2(c3ccccc31)[C@H](C(=O)N1CCCCCCC1)[C@H]1C(=O)O[C@H](c3ccccc3)[C@H](c3ccccc3)N1[C@@H]2c1ccc(O)cc1	1.21

Lookup: Look up composite z-score of COCCOC(=O)N1C(=O)[C@@]2(c3cc(C#CC4=CCCCC4)ccc31)[C@H](c1ccc(OCCO)cc1)N1[C@H](c3ccccc3)[C@H](c3ccccc3)OC(=O)[C@H]1[C@@H]2C(=O)N1CCCCCCC1 and report it.
Found: 0.929

Lookup: # return recorded composite z-score for input CN1C(=O)C2C=CC(C(O)c3ccc(-c4ccccc4)s3)N(Nc3ccccc3)C2C1=O (configuration not stated)
Found: 1.19

###

assay explanation: RPMI8226 myeloma cell viability, profiling panel, resazurin fluorescence, basal, 24 h, PK04 Diversity Set (AID 1180);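 also: RPMI8826 multiple myeloma cell line at 5000 cells per well; test concentration not given here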
stated conditions: higher = more signal
endpoint label: z-score

compound	z-score
CN(C)CCCNC(=O)[C@@]1(Cc2ccccc2I)c2ccccc2C(=O)N(Cc2ccccc2)[C@H]1c1ccc(CO)cc1	-1.89

Lookup: For NCCCC[C@@H]1NC(=O)[C@H]2C[C@@H](C(=O)NCc3ccc(F)cc3)[C@@H](c3ccc(O)cc3)N2C1=O , write its z-score.
Found: 0.191

Lookup: Give recorded z-score. CC(C)CNC(=O)[C@@H]1c2ccccc2C(=O)N(Cc2ccccc2Cl)[C@H]1c1ccc(CO)cc1
Found: 0.943

Lookup: Identify z-score associated with the compound CC(C)C[C@@H]1NC(=O)[C@H]2C[C@@H](C(=O)NCCCCCNC(=O)CS)[C@@H](c3ccc(O)cc3)N2C1=O
Found: -0.57

Lookup: Look up and report measured z-score for this entry: C=CCN1C(=O)[C@]2(O[C@H](CCO)[C@@H]([Si](C)(C)c3ccc(OC)cc3)[C@@H]2C)c2ccccc21
Found: -2.74

Lookup: For the compound COc1ccc(NN2C(C(O)c3ccc(OC)cc3)C=CC3C(=O)N(C4CCCCC4)C(=O)C32)cc1 (stereo unspecified) , report z-score.
Found: 0.346

###

Each record here notes measured composite z-score.
assayed system: Torsin-1A (Homo sapiens) (UniProt O14656)
Sequence (O14656 whole entry, looked up): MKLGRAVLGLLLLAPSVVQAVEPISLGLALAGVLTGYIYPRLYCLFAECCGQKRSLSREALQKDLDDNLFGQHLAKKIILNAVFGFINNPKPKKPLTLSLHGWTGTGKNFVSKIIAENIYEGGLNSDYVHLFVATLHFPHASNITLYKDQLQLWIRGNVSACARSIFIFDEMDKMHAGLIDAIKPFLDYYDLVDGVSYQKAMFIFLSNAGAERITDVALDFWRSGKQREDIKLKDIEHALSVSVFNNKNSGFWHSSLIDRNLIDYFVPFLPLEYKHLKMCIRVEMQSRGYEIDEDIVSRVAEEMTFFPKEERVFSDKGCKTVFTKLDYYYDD
assay explanation: torsin A binders from cell lysate, primary screen, small-molecule microarray, wild-type, 635/667 nm (AID 1149)
stated conditions: COS7 hTOR1A-WT lysate, 635 nm fluorescence, higher = more signal
Output: the number by itself.

Example entries and their recorded answers appear below.
compound	assayed system	composite z-score
C=CCN1C(=O)[C@]2(O[C@H](CCO)[C@@H]([Si](C)(C)c3ccc(OC)cc3)[C@@H]2C)c2ccccc21	Torsin-1A (Homo sapiens) (UniProt O14656)	-0.958
COCCOC(=O)N1C(=O)[C@@]2(c3cc(C#CCNC(N)=O)ccc31)[C@H](C(=O)NC[C@H](O)c1ccccc1)[C@H]1C(=O)O[C@H](c3ccccc3)[C@H](c3ccccc3)N1[C@@H]2c1ccc(OCCO)cc1	Torsin-1A (Homo sapiens) (UniProt O14656)	0.131

Lookup: Answer briefly: composite z-score recorded on Torsin-1A (Homo sapiens) (UniProt O14656) for C=CCC(OC(C)=O)[C@@H]1[C@@H](N(Cc2cc3ccccc3o2)C(=O)c2cccc3ccccc23)c2cc(OCCCO)ccc2N1C(=O)c1ccc2ccccc2c1 (stereo partly drawn)
Found: 0.523

###

Listed next: entries and their corresponding z-score.
assay explanation: basal 3T3-L1 adipocyte mitochondrial potential changes, profiling panel, cell-based, JC-1 fluorescence, 3T3-L1 adipocytes, 24 h, 100 nL compound (AID 1168); also: test concentration not given here
stated conditions: JC-1 mitochondrial fluorescence, higher = more signal, called active from +8 up or from −8 down
When you answer, write just the number.

The cases that follow already have their z-score on record.
compound	meas value
C=CCOC(=O)[C@H]1[C@@H]2C(=O)O[C@@H](c3ccccc3)[C@@H](c3ccccc3)N2[C@@H](c2ccc(OCCOC(=O)[C@@H]3C[C@@H]4C(=O)N[C@@H](CC(C)C)C(=O)N4[C@@H]3c3ccc(O)cc3)cc2)[C@]12C(=O)Nc1ccc(I)cc12	1
CC(C)(C)N1CC=CC23O[C@@H]4/C=C\CCCOC(=O)C4[C@H]2C(=O)N(CCCCCCO)[C@@H]3C1=O (stereo partly drawn)	1.04
C=CCN1C(=O)[C@]2(O[C@H](CCn3cc([C@H](O)c4ccccc4)nn3)[C@@H]([Si](C)(C)c3ccc(OC)cc3)[C@@H]2C)c2cc(N3C(=O)c4cccc5cccc3c45)ccc21	1.19
COC(=O)[C@@]1(Cc2ccccc2CN=[N+]=[N-])COC(c2ccc(OCCCO)cc2)=N1	-0.428

// below: z-score requested for another compound
Lookup: Return z-score for the following compound: CN(C)CCCCNC(=O)[C@H]1C[C@H]2C(=O)N[C@@H](Cc3ccccc3)C(=O)N2[C@H]1c1cccc(OCCO)c1
Found: -0.259

###

assayed system: Torsin-1A (Homo sapiens) (UniProt O14656)
assay explanation: small-molecule binders of mutant TOR1A in lysate, primary screen, cell lysate, small-molecule microarray, COS7 lysate, 635/667 nm fluorescence (AID 1150);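 also: score pools 667 nm emission and signal to noise measuring lysate protein binding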
stated conditions: COS7 hTOR1A mutant lysate, 635 nm fluorescence, higher = more signal
endpoint label: composite z-score
Enter a number only.

Worked cases, answers included:
molecule	composite z-score
COC(=O)C1=CC(CCCO)=CC(C2CC2)N(Cc2cccc(OC(F)(F)F)c2)C=C1C(=O)OC (stereo not given)	0.497
NC(=O)N1C(=O)C2C(C1=O)C1C=C(CCCO)C2C(c2ccc(CN3CCCC3)cc2)N1Cc1cccc(OC(F)(F)F)c1 (stereo not given)	0.462
O=C1C2C=CC(C(O)c3ccc([N+](=O)[O-])cc3)N(Nc3ccccc3)C2C(=O)N1c1ccccc1 (stereo not given)	0.221
CN1C(=O)C2C=CC(C(O)c3ccc(-c4ccccc4)s3)N(Nc3ccccc3)C2C1=O (stereo not given)	0.271
O=C1O[C@H](c2ccccc2)[C@H](c2ccccc2)N2[C@H]1[C@@H](C(=O)N1CCN(c3ncccn3)CC1)[C@]1(C(=O)Nc3ccccc31)[C@H]2c1ccc(O)cc1	0.799

Lookup: Please list composite z-score recorded for the molecule Cc1ccccc1C(O)C1C=CC2C(=O)N(c3ccccc3)C(=O)C2N1Nc1ccccc1F (stereo not given)
Found: 1.25

Lookup: Complete the entry with composite z-score for CN(C)C(=O)[C@@]1(CCS(=O)(=O)c2ccccc2)N=C(c2ccc(OCCCO)cc2)O[C@H]1c1ccccc1N=[N+]=[N-]
Found: 0.797

Lookup: # return recorded composite z-score for input COc1ccc(NN2C(C(O)c3cc(C(F)(F)F)cc(C(F)(F)F)c3)C=CC3C(=O)N(C4CCCCC4)C(=O)C32)cc1 (stereo not given)
Found: 1.19

Lookup: Return composite z-score for the following molecule: C[C@H]1C2[C@H](Cc3ccccc3)NC(=O)[C@]23C(=O)NCC(=O)N2CCC[C@H]2C(=O)NC/C=C\C/C=C/C3[C@@H]2O[C@]12C (stereo not given in full)
Found: -0.618

Lookup: State its composite z-score for this molecule: C=CCOC(=O)[C@H]1[C@@H]2C(=O)O[C@@H](c3ccccc3)[C@@H](c3ccccc3)N2[C@@H](c2ccc(OCCOC(=O)[C@@H]3C[C@@H]4C(=O)N[C@@H](Cc5ccccc5)C(=O)N4[C@@H]3c3ccc(O)cc3)cc2)[C@]12C(=O)Nc1ccccc12
Found: 0.8

Lookup: Please give the documented composite z-score of CN1C(=O)[C@]2(CCC(=O)OC(C)(C)C)N=C(c3ccc(OCCCO)cc3)O[C@@H]2c2ccccc21
Found: 0.401

Lookup: Provide one value: measured composite z-score of C=CC[C@@]1(C(=O)O)N=C(c2ccc(OCCCO)cc2)O[C@@H]1c1ccccc1CN=[N+]=[N-]
Found: 0.884

Lookup: Return value of composite z-score for input CC(c1ccccc1)C(O)C1C=CC2C(=O)N(c3ccccc3)C(=O)C2N1Nc1ccc(C#N)cc1 (stereo not given) , no commentary.
Found: 0.739

Lookup: Identify measured composite z-score associated with C=CCC(OC(C)=O)[C@@H]1[C@@H](N(Cc2ccc(-c3ccccc3)cc2)C(=O)c2ccc(-c3ccccc3)cc2)c2cc(OCCCO)ccc2N1C(=O)c1ccc2ccccc2n1 (stereo not given in full)
Found: 0.342

Lookup: Quickly give me recorded composite z-score for C=CCC(OC(C)=O)[C@@H]1[C@@H](N(Cc2cc3ccccc3o2)C(=O)Cc2ccc(OC)cc2)c2cc(OCCCO)ccc2N1C(=O)Cc1ccc2ccccc2c1 (stereo not given in full)
Found: -1.01
